Value source: PubChem BioAssay (NCI)

growth inhibition values for the molecules below.
Assay: NCI Yeast Anticancer Drug Screen. Data for the rad50 strain (AID 155);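 further: 0% = growth of vehicle-only cultures of the same strain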
Settings: S. cerevisiae rad50 strain growth inhibition; at 5.0 µM (retest, dose inferred, filed as 0.5); hits give high values
Method: Growth inhibition of yeast strains with defined genetic alterations is measured as a screen for potential anti-cancer activity. Selected strains with alterations in DNA damage repair or cell cycle control were exposed to compounds and growth inhibition was measured relative to vehicle treated controls. The strain used in this assay is rad50
About 79,000 compounds went through this panel and 15% of them were active in at least one assay; those are over-represented in the sample as a whole.
Field format: number, assumed %, no unit text.

Check out these entries, answers already filled in.
O=C(NCC#CCO)C(F)(F)F ... -15
COc1ccc2c(c1)CCC/C2=N\NS(=O)(=O)c1c(C)cc(C)cc1C ... 15
C=C(Br)CN(C)CC(=C)Br ... 0
Cc1cc(C)[nH]c(=S)n1.[Pt] ... -1
CCCCCC/C=C/C#CCCCCCCCC(=O)O ... 30
CCc1cccc(C)c1NC(=O)/C(Cl)=C(\Cl)C(=O)O ... 67

Return reported growth inhibition; argument: NC(CCl)=NCC1C2CC3CC(C2)CC1C3 (configuration not stated) 14

###

growth inhibition values for the compounds below.
Test: NCI Yeast Anticancer Drug Screen. Data for the sgs1 mgt1 strain (AID 161);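 further: 0% = growth of cultures given vehicle only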
Conditions: S. cerevisiae sgs1 mgt1 strain, at 50.0 µM (retest, dose inferred, filed as 5.0), hits give high values
About 79,000 compounds went through this panel and 15% of them were active in at least one assay; those are over-represented in the sample as a whole.
Field format: number, assumed %, no unit text.

Check out these entries, answers already filled in.
O=[N+]([O-])c1cc(Cc2cc([N+](=O)[O-])c3cccnc3c2O)c(O)c2ncccc12 ... 98
COc1cc(CNC(=O)CCCCCCCCCCSC#N)ccc1O ... 77
O=C(Nc1ccc(C2=NCCN2)cc1)c1cc(C(=O)Nc2ccc(C3=NCCN3)cc2)cc(C(=O)Nc2ccc(C3=NCCN3)cc2)c1 ... 95

Return reported growth inhibition; argument: `CCC[CH2][Sn]([CH2]CCC)([O]C(=O)c1cc(F)ccc1F)[O]C(=O)c1cc(F)ccc1F` 33

Return reported growth inhibition; argument: `CC(=O)Nc1[c-]cccc1.CC(=O)Nc1[c-]cccc1.CC(=O)O.CC(=O)O.[Pd].[Pd]` 89

Return reported growth inhibition; argument: COC(=O)c1ccc(C)cc1C1CN=NC12Cc1cc(C)ccc1C2=O (configuration not stated) 67

Return reported growth inhibition; argument: `CC(=O)Nc1ccc(C(C)(C)c2ccc(C)cc2)cc1` 96

Return reported growth inhibition; argument: COc1ccc(NC(=O)CCC(=O)C(C)C(=O)c2ccccc2)cc1 (configuration not stated) 0

Return reported growth inhibition; argument: `Oc1ccc(N=Nc2ccc(Cl)cc2)cc1O` 98

###

Assay: NCI Yeast Anticancer Drug Screen. Data for the mlh1 rad18 strain (AID 175)
Conditions: S. cerevisiae mlh1 rad18 strain growth inhibition; at 50.0 µM (retest, dose inferred, filed as 5.0); hits give high values
Experimental: Growth inhibition of yeast strains with defined genetic alterations is measured as a screen for potential anti-cancer activity. Selected strains with alterations in DNA damage repair or cell cycle control were exposed to compounds and growth inhibition was measured relative to vehicle treated controls. The strain used in this assay is mlh1 rad18
About 79,000 compounds went through this panel and 15% of them were active in at least one assay; those are over-represented in the sample as a whole.
growth inhibition values for the molecules below.
Field format: number, assumed %, no unit text.

Check out these entries, answers already filled in.
COc1ccc(C2COc3cc(O)c(O)cc3C2)cc1OC (stereo not drawn) ... 90
COCC(O)Cn1cc([N+](=O)[O-])nc1C (stereo not drawn) ... 4
Cc1ccc(O)c(C(c2cc(C)ccc2O)c2cc([N+](=O)[O-])ccc2O)c1 ... 97

Return reported growth inhibition; argument: `CCOc1ccc2nc3cc(Cl)ccc3[n+](C)c2c1` 81

Return reported growth inhibition; argument: CC(=O)Nc1ccc2c(c1)C(S)c1ccccc1-2 (stereo not drawn) 71
